experiment: qHTS for differential inhibitors of proliferation of Plasmodium falciparum line D10 (AID 1877); settings: series mostly up to 28.7 µM;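 note: parasites grown with compound for 72 h before DNA staining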
Inconclusive results are not listed. Activity calls are given as the source filed them. Calls come from the whole dose curve; as a rule, active = well fitted curve in the direction sought with a large enough effect; inconclusive = small, poorly fitted or top-dose-only effect, or another doubt; inactive = no such curve, though single readings can be large or run the other way.
Can you answer with just one of these options? active, inactive

• O=C(O)C1=CCCNC1 = inactive
• NC1(C(=O)O)CCCCC1 = inactive
• O=C(O)/C=C/c1cnc[nH]1 = inactive
• CC(C)(C)NCC(O)COc1cccc2[nH]c(=O)[nH]c12 (stereo not drawn) = inactive
• O=C1Cc2c([nH]c3ccc(Br)cc23)-c2ccccc2N1 = active
• COc1ccc2c(c1)c(CC(=O)O)c(C)n2Cc1ccc(Cl)cc1 = active
• NC1CONC1=O (stereo not drawn) = inactive
• N=S(=O)(O)Cc1noc2ccccc12 = inactive
• COc1cc(N)c(Cl)cc1C(=O)OCCN1CCCCC1 = inactive
• CCCCOC(=O)NS(=O)(=O)c1sc(CC(C)C)cc1-c1ccc(Cn2c(CC)nc3c(C)cc(C)nc32)cc1 = active

[in] Which outcome did this test record for the compound CC(N)(Cc1ccc(O)cc1)C(=O)O (stereo not drawn) ?
[out] inactive

[in] Which outcome did this test record for the compound C=CCN1CCc2c(cc(O)c(O)c2Cl)C(c2ccccc2)C1 (stereo not drawn) ?
[out] active

[in] Which outcome did this test record for the compound `N[C@@H](CCCC(=O)O)C(=O)O` ?
[out] inactive

###

experiment: qHTS for differential inhibitors of proliferation of Plasmodium falciparum line W2 (AID 1883); conditions: Plasmodium falciparum W2 proliferation inhibition; series mostly up to 28.7 µM;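 note: parasites grown with compound for 72 h before lysis and staining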
Inconclusive results are not listed. The source made the active and inactive calls. The call rests on the fitted dose curve; in most records, active means well fitted curve in the direction sought with a large enough effect; inconclusive means small, poorly fitted or top-dose-only effect, or another doubt; inactive means no such curve, though single readings can be large or run the other way.
Can you answer with just one of these options? 1.0 = active, 0.0 = inactive

Previously resolved entries follow.
• COc1cc(C(O)C(=O)O)ccc1O (stereo unspecified) = 0.0
• CC(N)(Cc1ccc(O)cc1)C(=O)O (stereo unspecified) = 0.0

[in] Which outcome did this test record for the molecule `CC(C)(CO)Cc1cc(C(C)(C)C)c(O)c(C(C)(C)C)c1` ?
[out] 1.0

[in] Which outcome did this test record for the molecule COc1ccc2c(c1)CCC1C2CC[C@@]2(C)C1CC[C@@H]2NCCCCCCN1C(=O)C=CC1=O (stereo partly specified) ?
[out] 0.0

[in] Which outcome did this test record for the molecule CCCCCCCCCC(=O)NC(CN1CCOCC1)[C@H](O)c1ccccc1 (stereo partly specified) ?
[out] 1.0

[in] Which outcome did this test record for the molecule `CCCC[C@@]1(C2CCCC2)Cc2cc(OCC(=O)O)c(Cl)c(Cl)c2C1=O` ?
[out] 1.0

[in] Which outcome did this test record for the molecule `CCN(c1nc(N)c(C(=O)N=C(N)N)nc1Cl)C(C)C` ?
[out] 1.0

###

tested on: Zika virus NS2B-NS3 protease (linked construct); test: 384 well plate NINDS Rhodamine confirmatory qHTS for Zika virus inhibitors (AID 1347164); conditions: rhodamine-110 peptide substrate fluorescence; series mostly up to 100 µM;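 note: fluorescence from protease cleavage of Ac-LKRR-rhodamine 110 substrate; nearly all actives have a fitted effect of over 65% in size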
Records with an inconclusive call do not appear. The source made the active and inactive calls. Calls follow the shape of the dose curve; as a rule, active = well fitted inhibition curve with a large enough effect; inconclusive = small, poorly fitted or top-dose-only effect; inactive = no such curve, though single readings can be large or run the other way.
Can you answer with just one of these options? YES (active), NO (inactive)

Previously resolved entries follow.
- O=C1Nc2ccc(I)cc2/C1=C/c1cc(Br)c(O)c(Br)c1: YES
- C/C(=C\c1ccc(C(=O)O)cc1)c1ccc2c(c1)C(C)(C)CCC2(C)C: NO
- C=CCN1CCc2c(cc(O)c(O)c2Br)[C@@H](c2ccccc2)C1: YES

Could you now consider this next compound?
[in] Which outcome did this test record for the compound `O=C(O)c1ccccc1Nc1cccc(OCc2ccc3ccccc3n2)c1` ?
[out] YES
